# study_target: Phosphatidylinositol 4,5-bisphosphate 3-kinase catalytic subunit alpha isoform (Homo sapiens)
# Sequence (P42336 whole entry, canonical isoform): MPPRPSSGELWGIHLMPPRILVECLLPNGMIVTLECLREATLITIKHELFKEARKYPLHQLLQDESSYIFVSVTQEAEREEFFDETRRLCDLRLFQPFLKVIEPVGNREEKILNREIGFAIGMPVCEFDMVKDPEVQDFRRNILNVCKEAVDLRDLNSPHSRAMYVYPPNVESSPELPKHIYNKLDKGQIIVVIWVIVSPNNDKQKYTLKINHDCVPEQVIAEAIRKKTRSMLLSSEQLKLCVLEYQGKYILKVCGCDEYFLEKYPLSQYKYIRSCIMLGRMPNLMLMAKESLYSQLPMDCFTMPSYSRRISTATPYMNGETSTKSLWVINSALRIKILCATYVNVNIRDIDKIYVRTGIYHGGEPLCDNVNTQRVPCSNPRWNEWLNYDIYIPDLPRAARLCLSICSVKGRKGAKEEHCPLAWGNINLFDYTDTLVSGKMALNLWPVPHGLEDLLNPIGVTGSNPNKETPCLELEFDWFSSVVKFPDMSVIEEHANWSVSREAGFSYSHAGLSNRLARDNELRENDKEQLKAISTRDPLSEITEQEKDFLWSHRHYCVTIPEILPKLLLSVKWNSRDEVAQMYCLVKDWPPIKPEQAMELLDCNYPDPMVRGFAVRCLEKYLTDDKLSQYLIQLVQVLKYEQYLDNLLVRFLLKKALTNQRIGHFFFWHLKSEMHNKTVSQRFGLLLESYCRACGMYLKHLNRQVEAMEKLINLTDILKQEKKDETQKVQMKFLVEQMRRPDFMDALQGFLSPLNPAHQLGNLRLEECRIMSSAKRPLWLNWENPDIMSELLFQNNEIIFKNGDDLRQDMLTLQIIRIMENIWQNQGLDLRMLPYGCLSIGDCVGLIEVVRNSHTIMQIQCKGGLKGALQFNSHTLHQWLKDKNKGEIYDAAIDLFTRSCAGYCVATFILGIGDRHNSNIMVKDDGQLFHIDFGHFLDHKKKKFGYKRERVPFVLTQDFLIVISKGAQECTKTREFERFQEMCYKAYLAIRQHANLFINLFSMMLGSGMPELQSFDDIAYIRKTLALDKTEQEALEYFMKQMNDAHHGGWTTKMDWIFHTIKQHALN
# assay_name: Inhibition of PI3Kalpha by fluorescene polarization assay
pKi: −log10 of the molar value.
Listed molecules paired with reported pKi

| molecule_smiles | operator | pKi |
| --- | --- | --- |
| Cc1nc(N)c2cccc(C(=O)Nc3cn[nH]c3)c2n1 | = | 8.22 |
| Cc1nc(N)c2ccc(C)c(C(=O)Nc3ccc(N(C)C)nc3)c2n1 | < | 7.00 |
| Cc1ccc(NC(=O)c2cccc3c(N)nc(C)nc23)cn1 | = | 9.30 |
| Cc1nc(N)c2cc(CN3CCOCC3)cc(C(=O)Nc3ccn[nH]3)c2n1 | = | 7.82 |
| Cc1ccc(NC(=O)c2c(C)ccc3c(N)nc(C)nc23)cn1 | = | 5.34 |
| Cc1cc(C(=O)Nc2ccc(C)nc2)c2nc(C)nc(N)c2c1 | = | 9.30 |
| COc1ccc(NC(=O)c2cc(C)cc3c(N)nc(C)nc23)cn1 | = | 9.30 |
| Cc1cc(C(=O)Nc2cn[nH]c2)c2nc(C)nc(N)c2c1 | = | 8.30 |
| Cc1nc(N)c2cccc(C(=O)Nc3ccc(N(C)C)nc3)c2n1 | = | 7.27 |
| Cc1cc(C(=O)Nc2ccn[nH]2)c2nc(C)nc(N)c2c1 | = | 8.15 |
| Cc1nc(N)c2ccc(C)c(C(=O)Nc3cn[nH]c3)c2n1 | < | 7.00 |
| Cc1nc(N)c2ccc(C)c(C(=O)Nc3cnc4[nH]ccc4c3)c2n1 | = | 6.20 |
| COc1ccc(NC(=O)c2c(C)ccc3c(N)nc(C)nc23)cn1 | < | 7.00 |
| Cc1nc(N)c2cc(CN(C)C)cc(C(=O)Nc3ccn[nH]3)c2n1 | = | 6.73 |
| Cc1nc(N)c2cccc(C(=O)Nc3cnc4[nH]ccc4c3)c2n1 | = | 9.00 |
| Cc1cc(C(=O)Nc2ccc(N(C)C)nc2)c2nc(C)nc(N)c2c1 | = | 7.92 |
| Cc1nc(N)c2ccc(C)c(C(=O)Nc3ccn[nH]3)c2n1 | = | 5.34 |
| Cc1cc(C(=O)Nc2cnc3[nH]ccc3c2)c2nc(C)nc(N)c2c1 | = | 9.52 |

The measured values listed here are drawn from ChEMBL document CHEMBL1667847.
